test system: Hepatitis C virus; experiment: Antiviral activity against HCV1b infected in human Huh7 cells assessed as inhibition viral subgenomic replication; assay type: functional, organism-based, Hepacivirus hominis; conditions: genotype 1b, Huh-7
pEC50: −log10 of the molar value.
READOUT_TYPE: pEC50

State its pEC50 on Hepatitis C virus: CC(C)c1csc(-c2nc(O[C@@H]3C[C@H]4C(=O)N[C@]5(C(=O)NS(=O)(=O)C6CC6)C[C@H]5/C=C\CCCCN(C)C(=O)[C@@H]4C3)c3ccccc3n2)n1
6.92

Enter reported pEC50 observed with Hepatitis C virus for COc1ccc2c(O[C@@H]3C[C@H]4C(=O)N[C@]5(C(=O)NS(=O)(=O)C6CC6)C[C@H]5/C=C\CCCCN(C)C(=O)N4C3)nc(-c3ccncc3)nc2c1C
8.15

Tell me reported pEC50 for COc1ccc2c(O[C@@H]3C[C@H]4C(=O)N[C@]5(C(=O)NS(=O)(=O)C6CC6)C[C@H]5/C=C\CCCCN(C)C(=O)[C@@H]4C3)nc(-c3ccccc3)nc2c1 , tested with Hepatitis C virus.
7.85

1. CN1CCN(c2nc(O[C@@H]3C[C@H]4C(=O)N[C@]5(C(=O)NS(=O)(=O)C6CC6)C[C@H]5/C=C\CCCCN(C)C(=O)[C@@H]4C3)c3ccccc3n2)CC1
2. COc1ccc2c(O[C@@H]3C[C@H]4C(=O)N[C@]5(C(=O)NS(=O)(=O)C6CC6)C[C@H]5/C=C\CCCCN(C)C(=O)[C@@H]4C3)nc(-c3nc(C(C)C)cs3)nc2c1
When their pEC50 values are compared, which is larger, 1 or 2 ? Pick one; state its label.
2

----------
assay: Oral bioavailability in Sprague-Dawley rat at 10 mg/kg; type: ADME, organism-based; details: in vivo
READOUT_TYPE: bioavailability (%)

Could you share which bioavailability value was measured for COc1ccc2c(O[C@@H]3C[C@H]4C(=O)N[C@]5(C(=O)NS(=O)(=O)C6CC6)C[C@H]5/C=C\CCCCN(C)C(=O)[C@@H]4C3)nc(-c3ccccc3)nc2c1C ?
40

1. COc1ccc2c(O[C@@H]3C[C@H]4C(=O)N[C@]5(C(=O)NS(=O)(=O)C6CC6)C[C@H]5/C=C\CCCCCNC(=O)N4C3)nc(-c3ccc(F)cc3)nc2c1C
2. COc1ccc2c(O[C@@H]3C[C@H]4C(=O)N[C@]5(C(=O)NS(=O)(=O)C6CC6)C[C@H]5/C=C\CCCCN(C)C(=O)N4C3)nc(-c3ccccc3)nc2c1C
Hi, I'm comparing 1 with 2 and wondering which one has the bigger number for bioavailability. Any idea? Give the chosen item's label as your response.
2
(2: 73%, 1: 38%)

----------
tested on: Hepatitis C virus; experiment: Antiviral activity against HCV1b infected in human Huh7 cells assessed as inhibition viral subgenomic replication; assay type: functional, organism-based, Hepacivirus hominis; details: genotype 1b, Huh-7
READOUT_TYPE: EC50 (nM)

Consider the worked cases shown below.
What measured EC50 goes with CN1CCCC/C=C\[C@@H]2C[C@@]2(C(=O)NS(=O)(=O)C2CC2)NC(=O)[C@@H]2C[C@@H](Oc3nc(N4CCOCC4)nc4ccccc34)C[C@H]2C1=O ?
390

What value of EC50 has been recorded for this entry: CN1CCCC/C=C\[C@@H]2C[C@@]2(C(=O)NS(=O)(=O)C2CC2)NC(=O)[C@@H]2C[C@@H](Oc3nc(-c4ccccc4)nc4ccccc34)C[C@H]2C1=O
52

I. COc1ccc2c(O[C@@H]3C[C@H]4C(=O)N[C@]5(C(=O)NS(=O)(=O)C6CC6)C[C@H]5/C=C\CCCCN(C)C(=O)[C@@H]4C3)nc(-c3ccc(F)cc3)nc2c1
II. COc1ccc2c(O[C@@H]3C[C@H]4C(=O)N[C@]5(C(=O)NS(=O)(=O)C6CC6)C[C@H]5/C=C\CCCCCNC(=O)N4C3)nc(-c3ccccc3)nc2c1C
Hi there, can you help? I need to know whether I or II has lower measured EC50. Please reply using the label of the selected record.
I
(I: 11 nM, II: 23 nM)

----------
assay: AUC in Sprague-Dawley rat at 10 mg/kg, po; assay type: ADME, organism-based; design: dose 10 mg/kg, route oral; settings: plasma
READOUT_TYPE: AUC (µM·h)

I. COc1ccc2c(O[C@@H]3C[C@H]4C(=O)N[C@]5(C(=O)NS(=O)(=O)C6CC6)C[C@H]5/C=C\CCCCN(C)C(=O)[C@@H]4C3)nc(-c3ccccc3)nc2c1C
II. COc1ccc2c(O[C@@H]3C[C@H]4C(=O)N[C@]5(C(=O)NS(=O)(=O)C6CC6)C[C@H]5/C=C\CCCCN(C)C(=O)N4C3)nc(-c3ccccc3)nc2c1C
Looking at recorded values for AUC, does I or II come in lower? Label of pick, please.
I
(I: 3.3 µM·h, II: 15 µM·h)

P. COc1ccc2c(O[C@@H]3C[C@H]4C(=O)N[C@]5(C(=O)NS(=O)(=O)C6CC6)C[C@H]5/C=C\CCCCN(C)C(=O)N4C3)nc(-c3ccc(F)cc3)nc2c1C
Q. COc1ccc2c(O[C@@H]3C[C@H]4C(=O)N[C@]5(C(=O)NS(=O)(=O)C6CC6)C[C@H]5/C=C\CCCCCNC(=O)N4C3)nc(-c3ccc(F)cc3)nc2c1C
Lab note: check whether P or Q has the lower measured AUC. # respond with the chosen item's label
Q

----------
assay: Tmax in Sprague-Dawley rat at 10 mg/kg, po; assay type: ADME, organism-based; set-up: dose 10 mg/kg, route oral; conditions: in vivo
READOUT_TYPE: Tmax (h)

Given the molecule COc1ccc2c(O[C@@H]3C[C@H]4C(=O)N[C@]5(C(=O)NS(=O)(=O)C6CC6)C[C@H]5/C=C\CCCCN(C)C(=O)[C@@H]4C3)nc(-c3ccccc3)nc2c1C , what is its reported Tmax?
2

Quick one: Tmax of COc1ccc2c(O[C@@H]3C[C@H]4C(=O)N[C@]5(C(=O)NS(=O)(=O)C6CC6)C[C@H]5/C=C\CCCCN(C)C(=O)N4C3)nc(-c3ccc(F)cc3)nc2c1C ?
5

a. COc1ccc2c(O[C@@H]3C[C@H]4C(=O)N[C@]5(C(=O)NS(=O)(=O)C6CC6)C[C@H]5/C=C\CCCCCNC(=O)N4C3)nc(-c3ccc(F)cc3)nc2c1C
b. COc1ccc2c(O[C@@H]3C[C@H]4C(=O)N[C@]5(C(=O)NS(=O)(=O)C6CC6)C[C@H]5/C=C\CCCCN(C)C(=O)N4C3)nc(-c3ccccc3)nc2c1C
Which has the smaller recorded Tmax, a or b ? I would appreciate it if you answered with the label of your choice.
a
(a: 2 h, b: 5 h)

----------
experiment: Apparent permeability across human Caco-2 cells; assay type: ADME, cell-based
READOUT_TYPE: Papp (×10⁻⁶ cm/s)

Consider the reported Papp for these molecules:
Which Papp value belongs to CN1CCCC/C=C\[C@@H]2C[C@@]2(C(=O)NS(=O)(=O)C2CC2)NC(=O)[C@@H]2C[C@@H](Oc3nc(-c4ccccc4)nc4ccccc34)C[C@H]2C1=O ?
21

Form field: reported Papp of COc1ccc2c(O[C@@H]3C[C@H]4C(=O)N[C@]5(C(=O)NS(=O)(=O)C6CC6)C[C@H]5/C=C\CCCCN(C)C(=O)[C@@H]4C3)nc(-c3ccccc3)nc2c1
13

Request the reported Papp associated with COc1ccc(-c2nc(O[C@@H]3C[C@H]4C(=O)N[C@]5(C(=O)NS(=O)(=O)C6CC6)C[C@H]5/C=C\CCCCN(C)C(=O)N4C3)c3ccc(OC)c(C)c3n2)cc1
33

Returns the measured Papp for the input molecule. Input: COc1ccc2c(O[C@@H]3C[C@H]4C(=O)N[C@]5(C(=O)NS(=O)(=O)C6CC6)C[C@H]5/C=C\CCCCN(C)C(=O)N4C3)nc(-c3ccc(F)cc3)nc2c1C
32

Can you share its Papp? I mean this molecule: COc1ccc2c(O[C@@H]3C[C@H]4C(=O)N[C@]5(C(=O)NS(=O)(=O)C6CC6)C[C@H]5/C=C\CCCCN(C)C(=O)N4C3)nc(-c3ccncc3)nc2c1C
0.4

Requested read-out: Papp. Entry: COc1ccc(-c2nc(O[C@@H]3C[C@H]4C(=O)N[C@]5(C(=O)NS(=O)(=O)C6CC6)C[C@H]5/C=C\CCCCN(C)C(=O)[C@@H]4C3)c3ccc(OC)c(C)c3n2)cc1
9

Look at this molecule and give its reported Papp. COc1ccc2c(O[C@@H]3C[C@H]4C(=O)N[C@]5(C(=O)NS(=O)(=O)C6CC6)C[C@H]5/C=C\CCCCN(C)C(=O)N4C3)nc(-c3ccccc3)nc2c1C
26

Endpoint output: Papp of COc1ccc2c(O[C@@H]3C[C@H]4C(=O)N[C@]5(C(=O)NS(=O)(=O)C6CC6)C[C@H]5/C=C\CCCCCNC(=O)N4C3)nc(-c3ccccc3)nc2c1C . Value?
38

1. COc1ccc2c(O[C@@H]3C[C@H]4C(=O)N[C@]5(C(=O)NS(=O)(=O)C6CC6)C[C@H]5/C=C\CCCCCNC(=O)N4C3)nc(-c3ccc(F)cc3)nc2c1C
2. COc1ccc2c(O[C@@H]3C[C@H]4C(=O)N[C@]5(C(=O)NS(=O)(=O)C6CC6)C[C@H]5/C=C\CCCCN(C)C(=O)[C@@H]4C3)nc(-c3ccc(F)cc3)nc2c1
3. COc1ccc2c(O[C@@H]3C[C@H]4C(=O)N[C@]5(C(=O)NS(=O)(=O)C6CC6)C[C@H]5/C=C\CCCCN(C)C(=O)[C@@H]4C3)nc(-c3ccccc3)nc2c1C
Exam item: list the entries in increasing order of Papp. Write out the labels following the order that was asked for.
3, 2, 1
(3: 13 ×10⁻⁶ cm/s, 2: 20 ×10⁻⁶ cm/s, 1: 32 ×10⁻⁶ cm/s)
